- Test Target: human epidermal growth factor receptor 2 (HER2) (human, UniProt P04626 23-1255)
- Assay Summary: cell-based or functional assay
The reader will find reported % cells killed (maximal), AU565 cells, anti-kappa-ETA'-conjugated antibody values listed item by item below.
Observation Type: % cells killed (maximal), AU565 cells, anti-kappa-ETA'-conjugated antibody (%)

| Binder | Obs Value |
| --- | --- |
| HER2 antibody 153 (antibody, V domains shown) VH: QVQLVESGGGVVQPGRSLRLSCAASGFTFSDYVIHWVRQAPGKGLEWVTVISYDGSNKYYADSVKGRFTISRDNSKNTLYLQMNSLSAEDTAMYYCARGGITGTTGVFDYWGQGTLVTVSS VL: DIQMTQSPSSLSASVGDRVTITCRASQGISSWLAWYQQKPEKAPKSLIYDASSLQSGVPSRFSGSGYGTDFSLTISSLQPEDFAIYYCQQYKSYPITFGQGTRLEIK | 60.3 |
| HER2 antibody 098 (antibody, V domains shown, also called PC1014-098; TH1014-098) VH: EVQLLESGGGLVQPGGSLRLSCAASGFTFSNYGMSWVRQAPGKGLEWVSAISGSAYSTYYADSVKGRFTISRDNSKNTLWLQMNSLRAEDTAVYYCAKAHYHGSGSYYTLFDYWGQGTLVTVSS VL: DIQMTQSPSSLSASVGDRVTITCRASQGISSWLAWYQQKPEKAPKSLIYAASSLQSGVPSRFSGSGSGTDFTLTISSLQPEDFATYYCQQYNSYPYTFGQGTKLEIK | 58.7 |
| HER2 antibody 132 (antibody, V domains shown) VH: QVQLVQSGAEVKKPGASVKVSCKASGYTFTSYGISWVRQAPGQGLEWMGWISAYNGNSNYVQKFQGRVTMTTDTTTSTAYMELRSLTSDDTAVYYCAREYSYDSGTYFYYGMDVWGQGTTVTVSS VL: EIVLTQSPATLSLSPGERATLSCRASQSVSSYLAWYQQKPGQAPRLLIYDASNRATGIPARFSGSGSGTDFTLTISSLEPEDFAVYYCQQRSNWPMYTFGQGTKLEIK | 61.6 |
| HER2 antibody 127 (antibody, V domains shown) VH: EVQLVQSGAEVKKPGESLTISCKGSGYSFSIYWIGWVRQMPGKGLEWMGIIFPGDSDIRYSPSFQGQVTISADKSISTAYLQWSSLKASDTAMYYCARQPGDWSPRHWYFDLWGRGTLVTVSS VL: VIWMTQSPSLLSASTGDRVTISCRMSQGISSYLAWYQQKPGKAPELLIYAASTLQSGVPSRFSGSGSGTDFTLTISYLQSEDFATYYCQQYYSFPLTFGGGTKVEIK | 69 |
